target: SARS-CoV-2 spike protein receptor binding domain (RBD2) (SARS-CoV-2, UniProt P0DTC2 319-537); test: SPR sandwich binning, ligand H05
Quick reference: normalized analyte binding to RBD2 held by the immobilized ligand of the listed items.
observed_property: normalized analyte binding to RBD2 held by the immobilized ligand

{"binder": "E01 IgG1 (antibody, V domains shown, also called E1) VH: QVQLQQWGAGLLKPSETLSLKCAVYGGSFSGYYWGWIRQSTGKGLEWIGEINRSGSTNYNPSLKSRVTISVDTSKNQFSLKLSSVTAADTAVYYCARGGARYYYGSGSYRSTPRPYYFDYWGQGTLVTVSS VL: SYELTQPPSVSVAPGETARITCGGDNIGRRHVHWYQQKPGQAPVLVIYDDSDRPSGIPDRFSGSNSGNTATLTIGRVEAGDEADYYCQVWGSSNDPHVFGTGTKLTVL", "observed_value": 2.18}
{"binder": "H01 IgG1 (antibody, V domains shown, also called H1) VH: QVTLKESGPVLVKPTETLTLTCTVSGFSLSNARMGVSWIRQPPGKALEWLAHIFSNGEKSYSTSLKSRLTISKDTSKSQVVLTMTNMDPVDTATYYCARTLDYYDSSGYLVGGAFDIWGQGTMVTVSS VL: QPGLTQPPSVSLAPGQTARITCGGNNIGSKSVHWYQQKPGQAPVLVVYDDSDRPSGIPERFSGSNAGNTATLTISRVEAGDEADYYCQVWDSRSDQYVFGTRTKLTVL", "observed_value": -0.05}
{"binder": "S01 IgG1 (antibody, V domains shown, also called 501) VH: QVQLVESGGGLVKPGGSLRLSCAASGFTVGSNYMSWVRQAPGKGLEWVSVIYSGGSTYYADSVKGRFTISRDNSKNTLYLQMNSLRAEDTAVYYCARGSSGAWYFDLWGRGTLVTVSS VL: EIVMTQSPSSLSASVGDSVTITCQASQDISNYLNWYQQKPGKAPKLLIYDASNLETGVPSRFSGGGSGTDFTLTITSLQPEDIATYYCQQYDNFPPTFGPGTKVDIK", "observed_value": 1.2}
